Test system: BMP-mediated SMAD1/5/8 phosphorylation
method notes: Immunoblot of BMP-induced SMAD1/5/8 phosphorylation in PASMCs
Format: cell-based, murine
assay context: Mus musculus, PASMC; FIG. 6; read-out: IC50, activation of SMADs 1, 5, and 8 by BMP4
observation type: pIC50
# pIC50: negative log10 of molar concentration; output just the value

Could you share what pIC50 was measured for "c1cc(-c2cnn3cc(-c4ccc(OCCN5CCCCC5)cc4)cnc23)ccn1" , tested on BMP-mediated SMAD1/5/8 phosphorylation?
6.30

###

Tested on: BMP-mediated SMAD1/5/8 phosphorylation
method notes: Immunoblot of BMP-induced SMAD1/5/8 phosphorylation in PASMCs
Assay type: cell-based, murine
assay context: Mus musculus, PASMC; PASMCs, Hill plot, 0.1-50 μM; read-out: functional IC50, BMP4-stimulated SMAD1/5/8 phosphorylation
observation type: IC50 (µM)
Field format: number, assumed µM, no unit text.

# IC50 lookup, item "c1cc(-c2cnn3cc(-c4ccc(OCCN5CCCCC5)cc4)cnc23)ccn1"
0.47
